assayDetails: in vivo
reportedConditions: BALB/c, mouse, iv

>  <molecule>
Cc1c(CN(C)C(=O)/C=C/c2cnc3c(c2)CC[C@H](N)C(=O)N3)oc2ccccc12 [fabimycin]

>  <unitsText>
mg/kg

>  <MTD at 1 day>
75

$$$$

* * *

assayDetails: Pharmacokinetic assessment in neutropenic A. baumannii-infected mice
Type: in vivo, mouse
reportedConditions: female, BALB/c, mouse; plasma; 100 mg/kg, IV, single dose

>  <inputSmiles>
Cc1c(CN(C)C(=O)/C=C/c2cnc3c(c2)CC[C@H](N)C(=O)N3)oc2ccccc12

>  <half-life [h]>
1.4

$$$$

* * *

assayDetails: Pharmacokinetic assessment in neutropenic A. baumannii-infected mice
Type: in vivo, mouse
reportedConditions: female, BALB/c, mouse; thigh; 75 mg/kg, IV, single dose

>  <compound>
Cc1c(CN(C)C(=O)/C=C/c2cnc3c(c2)CC[C@H](N)C(=O)N3)oc2ccccc12 [fabimycin]

>  <AUC(0-t)>
65200 ng·h/mL

$$$$

* * *

Here, each record is paired with measured MIC data.
System: K. pneumoniae AR-0560
assayDetails: MIC, broth microdilution (CLSI)
Format: cell-based
reportedConditions: Klebsiella pneumoniae, AR0560; K. pneumoniae AR-0560 clinical isolate
measurementName: MIC (µg/mL)

>  <compound>
Cc1c(CN(C)C(=O)/C=C/c2cnc3c(c2)CCC(CN)C(=O)N3)oc2ccccc12 (racemic) [(±)-8]

>  <measurementName>
MIC

>  <unitsText>
µg/mL

>  <prefixOperator>
=

>  <recordedMeasurement>
16

$$$$
>  <compound>
Cc1c(CN(C)C(=O)/C=C/c2cnc3c(c2)CCCC(=O)N3)oc2ccccc12

>  <measurementName>
MIC

>  <unitsText>
µg/mL

>  <prefixOperator>
>

>  <recordedMeasurement>
32

$$$$
>  <compound>
Cc1c(CN(C)C(=O)/C=C/c2cnc3c(c2)CCC(N)C(=O)N3)oc2ccccc12 (racemic) [(±)-7]

>  <measurementName>
MIC

>  <unitsText>
µg/mL

>  <prefixOperator>
=

>  <recordedMeasurement>
8

$$$$

* * *

assayDetails: in vivo
reportedConditions: female, C57BL/6, mouse, ip
measurementName: MTD at 1 day

>  <inputSmiles>
Cc1c(CN(C)C(=O)/C=C/c2cnc3c(c2)CC[C@H](N)C(=O)N3)oc2ccccc12

>  <recordedMeasurement>
> 200 mg/kg

$$$$

* * *

assayDetails: Pharmacokinetic assessment in neutropenic A. baumannii-infected mice
Format: in vivo, mouse
reportedConditions: female, BALB/c, mouse; plasma; 100 mg/kg, IV, single dose
measurementName: clearance

>  <molecule>
Cc1c(CN(C)C(=O)/C=C/c2cnc3c(c2)CC[C@H](N)C(=O)N3)oc2ccccc12 [fabimycin]

>  <measurementName>
clearance

>  <recordedMeasurement>
23.5 mL/min/kg

$$$$

* * *

Test system: E. coli AR-0085
assayDetails: MIC, broth microdilution (CLSI)
Type: cell-based
reportedConditions: Escherichia coli, AR0085; E. coli AR-0085 clinical isolate

>  <compound>
Cc1c(CN(C)C(=O)/C=C/c2cnc3c(c2)CCC(=O)N3)oc2ccccc12 [Debio-1452, reference compound]

>  <prefixOperator>
>

>  <MIC (µg/mL)>
32

$$$$
>  <compound>
Cc1c(CN(C)C(=O)/C=C/c2cnc3c(c2)CC[C@@H](N)C(=O)N3)oc2ccccc12 [(R)-7]

>  <prefixOperator>
=

>  <MIC (µg/mL)>
128

$$$$
>  <compound>
Cc1c(CN(C)C(=O)/C=C/c2cnc3c(c2)CC[C@H](N)C(=O)N3)oc2ccccc12

>  <prefixOperator>
=

>  <MIC (µg/mL)>
1

$$$$
>  <compound>
Cc1c(CN(C)C(=O)/C=C/c2cnc3c(c2)CC2(CC(N)C2)C(=O)N3)oc2ccccc12 (racemic) [(±)-3]

>  <prefixOperator>
=

>  <MIC (µg/mL)>
16

$$$$
>  <compound>
Cc1c(CN(C)C(=O)/C=C/c2cnc3c(c2)CCC(N)C(=O)N3)oc2ccccc12 (racemic) [(±)-7]

>  <prefixOperator>
=

>  <MIC (µg/mL)>
4

$$$$
>  <compound>
Cc1c(CN(C)C(=O)/C=C/c2cnc3c(c2)CC[C@H](NC(=O)OC(C)(C)C)C(=O)N3)oc2ccccc12 [(S)-11]

>  <prefixOperator>
=

>  <MIC (µg/mL)>
8

$$$$
>  <compound>
Cc1c(CN(C)C(=O)/C=C/c2cnc3c(c2)CCCC(=O)N3)oc2ccccc12

>  <prefixOperator>
=

>  <MIC (µg/mL)>
8

$$$$
>  <compound>
Cc1c(CN(C)C(=O)/C=C/c2cnc3c(c2)CC2(CNC2)C(=O)N3)oc2ccccc12

>  <prefixOperator>
=

>  <MIC (µg/mL)>
4

$$$$
>  <compound>
Cc1c(CN(C)C(=O)/C=C/c2cnc3c(c2)CC(N)C(=O)N3)oc2ccccc12 (stereo not shown) [Debio-1452-NH3, reference compound]

>  <prefixOperator>
=

>  <MIC (µg/mL)>
16

$$$$
>  <compound>
Cc1c(CN(C)C(=O)/C=C/c2cnc3c(c2)CCC(CN)C(=O)N3)oc2ccccc12 (racemic) [(±)-8]

>  <prefixOperator>
=

>  <MIC (µg/mL)>
8

$$$$
